TARGET OF ASSAY: AgifOBP9 (Aphidius gifuensis, UniProt A0A3Q9EL79, L121S)
Sequence (A0A3Q9EL79 entry or part of it L121S): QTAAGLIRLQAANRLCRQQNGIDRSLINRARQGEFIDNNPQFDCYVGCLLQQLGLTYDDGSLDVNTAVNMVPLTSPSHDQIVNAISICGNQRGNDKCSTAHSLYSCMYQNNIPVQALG
TEST DETAILS: Fluorescence competitive binding assay (1-NPN displacement) with recombinant AgifOBP9
COND: displacement of 1-NPN, 2 μM protein, Tris-HCl pH 7.4; Ki = [IC50]/(1+[1-NPN]/K1-NPN); means ± SD, three replicates; listed as (-)-β-pinene; read-out: OBP9 Ki
MEASUREMENT NAME: Ki

Bench note: what Ki did C=C1CCC2CC1C2(C)C (stereo not drawn) [(-)-β-Pinene] show?
< 10 µM

* * *

TARGET OF ASSAY: AgifOBP7 (Aphidius gifuensis, UniProt A0A3S9LWE5)
Sequence (A0A3S9LWE5 entry or part of it): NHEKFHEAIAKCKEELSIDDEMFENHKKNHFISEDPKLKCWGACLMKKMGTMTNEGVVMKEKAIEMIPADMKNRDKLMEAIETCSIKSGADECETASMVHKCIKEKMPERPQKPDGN
TEST DETAILS: Fluorescence competitive binding assay (1-NPN displacement) with recombinant AgifOBP7
pKi: −log10 of the molar value.
Reported values of pKi for individual entries

Item CC(=O)CCC=C(C)C has what recorded pKi?
< 4.52

Give its pKi value. Item: COC(=O)c1ccccc1O [Methyl salicylate]
< 4.52

Could you share which pKi value was measured for CC/C=C\CCO [cis-3-Hexenol] ?
< 4.52

Item COc1cccc(C(=O)OC/C=C(\C)CCC=C(C)C)c1O has what recorded pKi?
5.07

* * *

TARGET OF ASSAY: AgifOBP7 (Aphidius gifuensis, UniProt A0A3S9LWE5)
TEST DETAILS: Fluorescence competitive binding assay (1-NPN displacement) with recombinant AgifOBP7
MEASUREMENT NAME: IC50

Check out these entries, answers already filled in.
{"columns": ["COMPOUND", "IC50"],
 "data": [
  ["COC(=O)c1ccccc1O [Methyl salicylate]", "> 30 µM"],
  ["COc1cccc(C(=O)OC/C=C(\\C)CCC=C(C)C)c1O", "18.6 µM"],
  ["CC(=O)CCC=C(C)C", "> 30 µM"]
]}

Please turn your attention to the following entry.
Requested read-out: IC50. Entry: CC/C=C\CCO [cis-3-Hexenol]
> 30 µM

* * *

TARGET OF ASSAY: AgifOBP9 (Aphidius gifuensis, UniProt A0A3Q9EL79, L121S)
TEST DETAILS: Fluorescence competitive binding assay (1-NPN displacement) with recombinant AgifOBP9
COND: displacement of 1-NPN, 2 μM protein, Tris-HCl pH 7.4; Ki = [IC50]/(1+[1-NPN]/K1-NPN); means ± SD, three replicates; listed as (4aSR 7SR 7aRS)-nepetalactone; read-out: OBP9 Ki
pKi: −log10 of the molar value.
MEASUREMENT NAME: pKi

Need pKi of CC1=COC(=O)[C@H]2[C@@H]1CC[C@@H]2C [(4aSR 7SR 7aRS)-Nepetalactone] , thanks.
> 5.00

* * *

TARGET OF ASSAY: AgifOBP9 (Aphidius gifuensis, UniProt A0A3Q9EL79, L121S)
TEST DETAILS: Binding of fluorescent probe 1-NPN to AgifOBP9
COND: 2 μM protein, 50 mM Tris-HCl pH 7.4; read-out: dissociation constant of AgifOBP9/1-NPN complex
MEASUREMENT NAME: Kd (µM)
Number in µM, nothing else.

Endpoint output: Kd of c1ccc(Nc2cccc3ccccc23)cc1 [1-NPN, N-phenyl-1-naphthylamine] . Value?
0.69

* * *

TARGET OF ASSAY: AgifOBP7 (Aphidius gifuensis)
TEST DETAILS: Fluorescence competitive binding assay (1-NPN displacement) with recombinant AgifOBP7
COND: displacement of 1-NPN, 2 μM protein, Tris-HCl pH 7.4; Ki = [IC50]/(1+[1-NPN]/K1-NPN); means ± SD, three replicates; read-out: OBP7 Ki
MEASUREMENT NAME: Ki

A selection of reference data follows.
{"columns": ["COMPOUND", "RESULT VALUE"],
 "data": [
  ["CC1=CCC2CC1C2(C)C (stereo not drawn) [(-)-α-Pinene]", "> 30 µM"],
  ["C=C(C)C1CC=C(C)CC1 (single isomer, unassigned; (+)) [(+)-Limonene]", "> 30 µM"]
]}

With those in mind, consider the next compound.
Look up Ki for this compound: C=C1CCC2CC1C2(C)C (stereo not drawn) [(-)-β-Pinene]
> 30 µM
